Attribute: pIC50
# System: multidrug-resistant strain, K1
# assay-comment: Antiplasmodial activity, parasite lactate dehydrogenase assay, K1
# Assay type: cell-based, Plasmodium falciparum
# experimental-conditions: Plasmodium falciparum, K1, 72 h, parasite lactate dehydrogenase assay over 72 h; read-out: Pf IC50 ± SD K1
When answering, recall that pIC50 equals minus log10 of the concentration in mol/L, and write that number alone.

Illustrative cases are given below, each with its answer.
[
  {
    "compound": "CN1CCC(Nc2ccnc3ccc(-c4cccnc4C(F)(F)F)nc23)CC1",
    "observed-value": 6.52
  },
  {
    "compound": "N[C@@H]1CCN(c2ccnc3ccc(-c4ccc(C(F)(F)F)nc4)nc23)C1",
    "observed-value": 6.96
  },
  {
    "compound": "O[C@H]1CNCC[C@H]1Nc1ccnc2ccc(-c3ccc(C(F)(F)F)nc3)nc12 (relative stereo)",
    "observed-value": 6.48
  }
]

Now, please, on to the next compound.
Form field: reported pIC50 of CN1CCC(Nc2ccnc3ccc(-c4ccc(OCCCO)nc4)nc23)CC1
6.34
